Overview of reported %Inh across a group of compounds:
test system: JAK3(JH1domain-catalytic); conditions: concentration: 1 μM, replicates: in singlicate; n = 1;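 further: KINOMEscan kinase panel screen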

Compound: Cc1occc1-c1ncc(OC[C@@H](N)Cc2c[nH]c3ccccc23)cc1-c1ccc2[nH]nc(C)c2c1.O=C(O)C(F)(F)F [GSK682037]
%Inh: 0%

Compound: Cl.Cl.NCC(C(=O)Nc1cc(Br)c(-c2ccnc3[nH]ccc23)s1)c1ccccc1 (stereo not drawn) [GSK1269851]
%Inh: 100%

Compound: Nc1ncc(-c2cccnc2)c2scc(-c3ccc4c(c3)CCN4C(=O)Cc3ccccc3)c12 [GSK683281]
%Inh: 0%

###

tested on: ULK3; details: concentration: 1 μM, replicates: in singlicate; n = 1
Assay Endpoint: %Inh (%)

Compound: CN1CCN(CCCNc2nccc(-c3c(-c4ccc(F)cc4)nn4cc(C(F)(F)F)ccc34)n2)CC1 [GW621581]
Experimental Target: ULK3
Measured Value: 8
--
Compound: Cc1cccc(NC(=O)Nc2ccc(Oc3ncnc4ccn(C)c34)cc2)c1
Experimental Target: ULK3
Measured Value: 2
--
Compound: Cc1ccc(S(=O)(=O)Nc2ccc(Nc3nccc(Nc4cccc5[nH]ncc45)n3)cc2)cc1 [GSK581271]
Experimental Target: ULK3
Measured Value: 38
--
Compound: FC(F)(F)c1ccc(/C=C/c2cncnc2Nc2ccc3[nH]c(Cc4ccccc4)nc3c2)cc1 [GW709199]
Experimental Target: ULK3
Measured Value: 10

###

system: RIPK5; details: concentration: 1 μM, replicates: in singlicate; n = 1
We begin with a simple list: items and their reported %Inh.

Compound: c1ccc(-c2n[nH]cc2Nc2ccnc3ccccc23)nc1
Measurement Unit: %
%Inh: 85

Compound: Nc1n[nH]c2cnc(-c3ccccc3)cc12
Measurement Unit: %
%Inh: 0

Compound: NCCCC(NC(=O)c1cc(Br)c(-c2ccnc3[nH]ccc23)s1)c1ccccc1.O=C(O)C(F)(F)F.O=C(O)C(F)(F)F (stereo not drawn)
Measurement Unit: %
%Inh: 1

###

system: TEC; conditions: concentration: 1 μM, replicates: in singlicate; n = 1
%Inh by entry:
Assay Endpoint: %Inh (%)

Compound: CN(C)S(=O)(=O)c1cc(-c2ccc3nccc(-c4cccc(S(N)(=O)=O)c4)c3c2)cnc1N [GSK1669921]
Experimental Target: TEC
Assay Endpoint: %Inh
Measurement Unit: %
Measured Value: 12
--
Compound: CC(=O)N1CCN(c2ccc(Nc3nccc(-c4sc(C(C)C)nc4-c4cccc(NS(=O)(=O)c5cccc(Cl)c5)c4)n3)cn2)CC1 [GSK1660437]
Experimental Target: TEC
Assay Endpoint: %Inh
Measurement Unit: %
Measured Value: 21
--
Compound: Cl.Cl.NCC(C(=O)Nc1cc(Br)c(-c2ccnc3[nH]ccc23)s1)c1ccccc1 (centres unmarked) [GSK1269851]
Experimental Target: TEC
Assay Endpoint: %Inh
Measurement Unit: %
Measured Value: 11
--
Compound: FC(F)(F)c1ccc(/C=C/c2cncnc2Nc2ccc3[nH]c(Cc4ccccc4)nc3c2)cc1 [GW709199]
Experimental Target: TEC
Assay Endpoint: %Inh
Measurement Unit: %
Measured Value: 14
--
Compound: c1ccc(Oc2ccc(Nc3ccnc4cc(-c5ccc(CNCCN6CCOCC6)o5)ccc34)cc2)nc1 [GW567145]
Experimental Target: TEC
Assay Endpoint: %Inh
Measurement Unit: %
Measured Value: 39
--
Compound: C[C@@H](Oc1cc(-n2cnc3cc(-c4ccnc(NCCS(C)(=O)=O)c4)ccc32)sc1C(N)=O)c1ccccc1Cl [GSK907232]
Experimental Target: TEC
Assay Endpoint: %Inh
Measurement Unit: %
Measured Value: 4
--
Compound: Cl.c1ccc(-c2ccc3c(Nc4ccc5[nH]ncc5c4)ccnc3c2)nc1 [GW440137]
Experimental Target: TEC
Assay Endpoint: %Inh
Measurement Unit: %
Measured Value: 0
--
Compound: COc1cccc(-c2ccc3c(NC(=O)C4CC4)n[nH]c3n2)c1 [SB-710903]
Experimental Target: TEC
Assay Endpoint: %Inh
Measurement Unit: %
Measured Value: 0
--
Compound: CCCCc1nn2ncccc2c1-c1ccnc(Nc2ccc(N3CCN(C)CC3)cc2)n1 [GW684941]
Experimental Target: TEC
Assay Endpoint: %Inh
Measurement Unit: %
Measured Value: 0
--
Compound: CNC(=O)c1ccccc1Nc1nc(Nc2ccc(N3CCOCC3)cc2)ncc1Cl.Cl [GSK1576028]
Experimental Target: TEC
Assay Endpoint: %Inh
Measurement Unit: %
Measured Value: 99
--
Compound: O=C(Nc1cccc(-c2nn3ccccc3c2-c2ccnc(Nc3cccc(F)c3)n2)c1)c1c(F)ccc(F)c1Cl [GSK357952]
Experimental Target: TEC
Assay Endpoint: %Inh
Measurement Unit: %
Measured Value: 60
